assay: NCI Yeast Anticancer Drug Screen. Data for the mlh1 rad18 strain (AID 175); details: S. cerevisiae mlh1 rad18 strain growth inhibition; at 50.0 µM (retest, dose inferred, filed as 5.0); active compounds read high
This is part of a sample that, as a whole, favours compounds with a hit. Of some 79,000 tested, about 15% had one in any assay.
Note to self: values exactly at 80% are 1. So growth inhibition at or above 80% is 1, below is -1.

Exam item: Determine whether measured growth inhibition meets or exceeds 80% for OC(Cc1ccccc1)(c1ccccc1)C(O)(Cc1ccccc1)c1ccccc1 (stereo not drawn)
Marked response: -1

Exam item: Determine whether measured growth inhibition meets or exceeds 80% for O=C(/C=C\c1cc(Br)ccc1O)/C=C/c1cc(Br)ccc1O
Marked response: 1

Exam item: Determine whether measured growth inhibition meets or exceeds 80% for CCOC(=O)c1c(C)[nH]c(CO)c1C
Marked response: -1

Exam item: Determine whether measured growth inhibition meets or exceeds 80% for CCCCCCCCCCCCCCSC(=NC)NC
Marked response: 1

Exam item: Determine whether measured growth inhibition meets or exceeds 80% for Cc1ccc(SSCCCCCS(=O)O)cc1
Marked response: -1

Exam item: Determine whether measured growth inhibition meets or exceeds 80% for CCC(C(=O)C(C)C(O)C(C)CCc1ccc(C)c(O)c1C(=O)O)C1OC(CC)(C2CCC(O)(CC)C(C)O2)CC1C (stereo not drawn)
Marked response: 1

Exam item: Determine whether measured growth inhibition meets or exceeds 80% for CCCCCCC(C)OC(=O)/C=C/c1ccccc1 (stereo not drawn)
Marked response: -1

Exam item: Determine whether measured growth inhibition meets or exceeds 80% for COc1cccnc1/C=N/NC(N)=S
Marked response: -1

Exam item: Determine whether measured growth inhibition meets or exceeds 80% for COC(=O)c1nc2ccc([N+](=O)[O-])cc2n1O
Marked response: -1

Exam item: Determine whether measured growth inhibition meets or exceeds 80% for O=C(c1ccccc1)c1ccccc1S(=O)(=O)Nc1ccccc1
Marked response: 1

Exam item: Determine whether measured growth inhibition meets or exceeds 80% for O=C1C=CC(=O)c2c(O)c(N3CCN(CCO)CC3)c(Cl)c(O)c21
Marked response: 1

Exam item: Determine whether measured growth inhibition meets or exceeds 80% for Cc1cccc(/C=N/Nc2cc(C)c3ccccc3n2)n1
Marked response: 1

Exam item: Determine whether measured growth inhibition meets or exceeds 80% for O=C(Nc1ccc(F)cc1)ON=C1CCCCC1
Marked response: 1

Exam item: Determine whether measured growth inhibition meets or exceeds 80% for Cc1[nH]c2ccccc2c1C(c1ccccc1)c1c(C)[nH]c2ccccc12
Marked response: 1

Exam item: Determine whether measured growth inhibition meets or exceeds 80% for CCC(c1cccc(O)c1)C(CC)c1cccc(O)c1 (stereo not drawn)
Marked response: -1

Exam item: Determine whether measured growth inhibition meets or exceeds 80% for CC1(C(Cl)(Cl)Cl)C=CC(O)(C#CC2(O)C=CC(C)(C(Cl)(Cl)Cl)C=C2)C=C1 (stereo not drawn)
Marked response: 1

Exam item: Determine whether measured growth inhibition meets or exceeds 80% for CC(C)/C=N/N(CCOC(=O)Nc1ccccc1)C(=O)Nc1ccccc1
Marked response: -1

Exam item: Determine whether measured growth inhibition meets or exceeds 80% for CC(=O)OC1C(C)OC(OC(=O)C2CCC3C(C2)OC2(CC(OC(=O)/C=C/c4ccccc4)C(C)CO2)C32CO2)C(OC2OC(C)C(O)C(OC(C)=O)C2O)C1O (stereo not drawn)
Marked response: 1

----------
test: NCI Yeast Anticancer Drug Screen. Data for the mlh1 rad18 strain (AID 175); details: S. cerevisiae mlh1 rad18 strain growth inhibition; at 5.0 µM (retest, dose inferred, filed as 0.5); active compounds read high
Compounds without any hit were thinned out: in the full panel of roughly 79,000, 15% have a hit.
reported-metric: growth inhibition (%)
Express it in %; write the number only.

Form field growth inhibition, entry OCC(O)C(O)C(O)C(O)C(O)C(/C=N/Nc1ccccc1)=N/Nc1ccccc1 (centres undefined) : 8

Form field growth inhibition, entry CCN(CC)CCCNc1c(O)cc(C)c2sc3ccccc3c(=O)c12 : 6

Form field growth inhibition, entry NNC(=S)NN/C=C(\C=Nc1ccccc1)[N+](=O)[O-] : -20

Form field growth inhibition, entry Nc1ccc(C2CCC[C@H]2c2ccc(N)cc2)cc1 (some centres undefined) : 21

Form field growth inhibition, entry O=C(O)CSc1nc(-c2ccccc2)c(-c2ccccc2)n1-c1ccccn1 : 8

Form field growth inhibition, entry CC(C)(C)C(=O)CC(=O)C(F)(F)C(F)(F)C(F)(F)F.CC(C)(C)C(=O)CC(=O)C(F)(F)C(F)(F)C(F)(F)F.CC(C)(C)C(=O)CC(=O)C(F)(F)C(F)(F)C(F)(F)F.[Fe] : 32

Form field growth inhibition, entry Clc1ccc2oc(N3CCCCC3)nc2c1 : 4

Form field growth inhibition, entry CCC[CH2][Sn]([CH2]CCC)([O]C(=O)C(OC(C)=O)c1ccccc1)[O]C(=O)C(OC(C)=O)c1ccccc1 (centres undefined) : 60

Form field growth inhibition, entry CC(C)(CCBr)[N+](=O)[O-] : -225

----------
Record form. Attribute: growth inhibition. Fill in for each entry.
test: NCI Yeast Anticancer Drug Screen. Data for the rad50 strain (AID 155);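 note: 0% = growth of vehicle-only cultures of the same strain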; settings: S. cerevisiae rad50 strain growth inhibition; at 50.0 µM (retest, dose inferred, filed as 5.0); active compounds read high
The panel holds about 79,000 compounds, 15% with a hit somewhere; the sample as a whole holds those more often.
Express it in %; write the number only.

Form field growth inhibition, entry COC(=O)c1cc(C)c2sc3ccccc3c2c1C : 29

Form field growth inhibition, entry O=c1[nH]c2ccccc2nc1CBr : 95

Form field growth inhibition, entry C1CSCCCSCCCSCCCSCCCSC1 : 24

Form field growth inhibition, entry CC12CCCC1C1CC=C3CC(OC=O)CCC3(C)C1CC2 (stereo not given) : 4

Form field growth inhibition, entry CC(=O)OCC(=O)[C@@]1(O)[C@H](C)C[C@H]2[C@@H]3C=C(C)C4=Cc5c(cnn5-c5ccccc5)C[C@]4(C)[C@@]3(F)[C@@H](O)C[C@@]21C : 81

Form field growth inhibition, entry Oc1c(Br)cc(Cl)cc1C(c1cc(Cl)cc(Br)c1O)C(Cl)(Cl)Cl : 98

Form field growth inhibition, entry Cc1ccc2c(c1)C(=O)N(CC[P+](c1ccccc1)(c1ccccc1)c1ccccc1)C2=O : 89

Form field growth inhibition, entry CCOc1ccccc1N1C(=O)C=CC1=O : 67

Form field growth inhibition, entry O=C1C=CC2=Nc3ccccc3CCC2=C1 : 95

Form field growth inhibition, entry O=C(O)C(O)C(O)C(O)C(O)c1nc2ccccc2s1 (stereo not given) : 98

Form field growth inhibition, entry NC(N)=N/N=C/c1ccc([N+](=O)[O-])o1 : 22

Form field growth inhibition, entry CC(C)N(C(=O)c1ccc(Cl)c(Cl)c1)C(C)C : -14

Form field growth inhibition, entry Cc1cc2c(cc1Cl)Sc1nnc(C)n1S2(=O)=O : 81

Form field growth inhibition, entry CC(=O)c1ccc(OCc2ccccc2)cc1 : -6

Form field growth inhibition, entry Cc1cc2c(cc1C)[n+](=O)c(C(=O)C/C(=N/NC(=O)CC#N)C(=O)Nc1ccccc1C(F)(F)F)c(C)n2[O-] : 53

Form field growth inhibition, entry CN(C)CCCNc1ccc(O)c2sc3ccccc3c(=O)c12 : 14

Form field growth inhibition, entry O=C(O)c1cc2cc3ccccc3cc2cc1O : 32

Form field growth inhibition, entry O=C(O)c1ccccc1Cc1ccc2c(c1)Cc1ccccc1-2 : 76

Form field growth inhibition, entry O=[N+]([O-])c1cccc2nc3ccccc3c(NCCO)c12 : 94

Form field growth inhibition, entry C[n+]1c(-c2ccc(/C=N/NC(=O)C(=O)N/N=C/c3ccc(-c4cn5ccccc5[n+]4C)cc3)cc2)cn2ccccc21 : 95

Form field growth inhibition, entry O=S(=O)(O)c1cc2ccccc2c(O)c1N=Nc1ccccc1 : 97

Form field growth inhibition, entry CCCCC(CC)(CCC)CCN (stereo not given) : 93

Form field growth inhibition, entry O=C(O)CCC(=O)c1ccc(C2CCCC2)c2ccccc12 : 28

Form field growth inhibition, entry O=S(=O)(O)SCCNCCCCCC1CCCCC1 : 87

Form field growth inhibition, entry COC1(OC)OC2=C(OC1(OC)OC)c1ccccc1C2=O : 12

Form field growth inhibition, entry COc1ccc(/C=C2\CCC(CN(C)C)C2=O)cc1 (stereo not given) : 89

Form field growth inhibition, entry CN(C)CC1CCC/C(=C\c2ccc(Cl)cc2)C1=O (stereo not given) : 99

Form field growth inhibition, entry CN(C)CC/C(=N\Nc1ccc(Cl)cc1)c1ccccc1 : 99

Form field growth inhibition, entry O=C1SCCN1/N=C/c1ccc([N+](=O)[O-])o1 : 85

Form field growth inhibition, entry CSc1nc(NN)cc(-c2ccccc2)n1 : 23

Form field growth inhibition, entry CCC1(c2ccc(N3C(=O)c4ccccc4C3=O)cc2)CCC(=O)NC1=O (stereo not given) : -3

Form field growth inhibition, entry C[N+](C)(C)CCC(=O)c1ccco1 : 99

Form field growth inhibition, entry O=Nc1c(-c2cccc([N+](=O)[O-])c2)nc2cnccn12 : 99

Form field growth inhibition, entry Clc1ccccc1CN1COc2c(ccc3cccnc23)C1 : 21

Form field growth inhibition, entry O[C@H]1[C@H]2c3cc4c(cc3CN3CCC(=C[C@@H]1O)[C@H]23)OCO4 : 98

Form field growth inhibition, entry O=C1c2ccccc2C(=O)c2sc(Nc3ccc(Cl)cc3)nc21 : 97

Form field growth inhibition, entry COC(=O)/C=C1/Nc2ccc(Cl)cc2C(=O)NC1=O : 56

Form field growth inhibition, entry COc1ccc(C(c2cc3c(cc2O)OCO3)N2CCOCC2)cc1OC (stereo not given) : 39

Form field growth inhibition, entry CC(C)(CCBr)[N+](=O)[O-] : -161

Form field growth inhibition, entry CCC(CC)COC(=O)C(C)=O : 1

Form field growth inhibition, entry COC(=O)c1cc2c(c(C(=O)OC)c1O)C(=O)C=CC2=O : 78

Form field growth inhibition, entry Cc1ccc(I)c(C(C)(C)O)c1 : 71

Form field growth inhibition, entry N#CC(C#N)=C1CCC(CC2CCCCC2)CC1 (stereo not given) : 96

Form field growth inhibition, entry CN(C)CCOc1ccc2c(c1)C(=O)/C(=C\c1ncc([N+](=O)[O-])n1C)C2 : 73

Form field growth inhibition, entry O=S(=O)(c1ccc(O)cc1)c1ccc(Cl)cc1 : 38
